Data provenance is patent US20250136606A1.

Reported pEC50 values are given for each entry in this list.
Molecular target: UniProt:Q9GZU1
Sequence (Q9GZU1 whole entry L15A/L16A/L577A/L578A, form open): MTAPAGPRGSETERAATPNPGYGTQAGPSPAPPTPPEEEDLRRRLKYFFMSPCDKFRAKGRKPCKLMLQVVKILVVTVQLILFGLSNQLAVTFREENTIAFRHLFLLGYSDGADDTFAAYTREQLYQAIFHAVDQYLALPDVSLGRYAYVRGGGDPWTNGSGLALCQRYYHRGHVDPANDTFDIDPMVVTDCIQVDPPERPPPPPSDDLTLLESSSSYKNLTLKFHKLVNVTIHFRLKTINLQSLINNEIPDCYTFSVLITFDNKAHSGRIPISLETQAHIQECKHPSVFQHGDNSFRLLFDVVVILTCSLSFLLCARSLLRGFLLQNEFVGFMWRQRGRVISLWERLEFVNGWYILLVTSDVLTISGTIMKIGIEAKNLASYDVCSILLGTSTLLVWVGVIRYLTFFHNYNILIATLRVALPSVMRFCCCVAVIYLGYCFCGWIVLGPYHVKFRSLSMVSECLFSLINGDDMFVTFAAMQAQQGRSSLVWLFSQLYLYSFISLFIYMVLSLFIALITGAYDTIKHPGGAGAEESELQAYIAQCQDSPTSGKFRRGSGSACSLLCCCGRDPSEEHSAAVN
Assay: Fluorescent TRPML1 assay (Fluo4-AM calcium fluorescence in doxycycline-induced HEK-293 Trex cells)
Assay type: cell-based
Details: fluorescent calcium assay
pEC50: −log10 of the molar value.
Endpoint name: pEC50

{"columns": ["Compound", "Endpoint result"],
 "data": [
  ["Cc1nccnc1-c1cn(-c2cc(F)cc(F)c2)c2ncnc(N3CCN(C(=O)OC(C)(C)C(F)(F)F)C[C@@H]3C)c12 [Compound 247]", "5.70 to 6.30"],
  ["C[C@@H]1CN(c2ncnc3c2c(N2CCCC2)cn3-c2cc(C#N)ccn2)CCN1C(=O)OC(C)(C)C [Compound 416]", "> 7.00"],
  ["C[C@@H]1CN(c2ncnc3c2c(-c2cccnc2)cn3-c2cccc(Cl)c2)[C@@H](C)CN1C(=O)OC(C)(C)C [Compound 131]", "> 7.00"],
  ["C[C@H]1CN(C(=O)OC(C)(C)C)CCN1c1ncnc2c1c(N(C)C1CC1)cn2-c1cc(C#N)ccn1 [Compound 442]", "> 7.00"],
  ["C[C@@H]1CN(c2ncnc3c2c(N2CCC2)cn3-c2cc(C#N)ccn2)CCN1C(=O)OC(C)(C)C [Compound 388]", "> 7.00"],
  ["C[C@H]1CN(C(=O)OC(C)(C)C)CCN1c1ncnc2c1c(-c1ncccn1)cn2-c1cccc(Cl)c1 [Compound 116]", "6.30 to 7.00"],
  ["C[C@H]1CN(C(=O)OC(C)(C)C)CCN1c1ncnc2c1c(-c1ccccc1F)cn2-c1ccccn1 [Compound 231]", "> 7.00"],
  ["Cc1nccnc1-c1cn(-c2cc(F)cc(F)c2)c2ncnc(N3CCN(C(=O)OC(C)C)[C@H](C)C3)c12 [Compound 251]", "< 5.70"],
  ["C[C@@H]1CN(C(=O)OC(C)(C)C)CCN1c1ncnc2c1c(N1CCCC1)cn2-c1cccc(Cl)c1 [Compound 209]", "> 7.00"],
  ["C[C@H]1CN(C(=O)OC(C)(C)C)CCN1c1ncnc2c1c(-c1cccnc1)cn2-c1cc(F)cc(F)c1 [Compound 213]", "6.30 to 7.00"],
  ["C[C@H]1CN(C(=O)OC(C)(C)C)CCN1c1nccc2c1c(-c1ccccc1F)cn2-c1cc(C#N)ccn1 [Compound 449]", "> 7.00"],
  ["C[C@H]1CN(C(=O)OC(C)(C)C)CCN1c1ncnc2c1c(-c1nccnc1C(F)(F)F)cn2-c1cccc(Cl)c1 [Compound 273]", "6.30 to 7.00"],
  ["Cc1cncc(-n2cc(C3CC3)c3c(N4CCN(C(=O)OC(C)(C)C)C[C@@H]4C)ncnc32)c1 [Compound 150]", "6.30 to 7.00"],
  ["C[C@H]1CN(C(=O)OC(C)(C)C)CCN1c1ncnc2c1c(C1CCCC1)cn2-c1cccc(Cl)c1 [Compound 158]", "> 7.00"],
  ["Cc1cncc(-n2cc(C3CC3)c3c(N4CCN(C(=O)OC(C)(C)C)[C@H](C)C4)ncnc32)c1 (single isomer, unassigned) [Compound 175]", "5.70 to 6.30"],
  ["COc1cccc(-n2cc(C3CC3)c3c(N4CCN(C(=O)OC(C)(C)C(F)(F)F)C[C@@H]4C)ncnc32)c1 [Compound 263]", "6.30 to 7.00"],
  ["C[C@@H]1CN(c2ncnc3c2c(-c2ccccc2F)cn3-c2cnn(C)c2)[C@@H](C)CN1C(=O)OC(C)(C)C(F)(F)F [Compound 186]", "> 7.00"],
  ["C[C@@H]1CN(c2ncnc3c2c(C2CC2)cn3-c2cc(Cl)ccc2F)CCN1C(=O)OC(C)(C)C [Compound 224]", "> 7.00"],
  ["Cc1nccnc1-c1cn(-c2cccc(Cl)c2)c2ncnc(N3CCN(C(=O)OC(C)(C)C)CC3C)c12 (stereo not shown) [Compound 161]", "6.30 to 7.00"]
]}
